Values compiled from paper PMC8512704.

test target: T1, SspB (Escherichia coli, UniProt P0AFZ3 1-165)
T1 construct: SspB of Escherichia coli, full-length gene cloned from the Top10 genome; the dimer is stated, not measured here; also called SspB2; SspB adaptor; source: E. coli BL21 (DE3), pET28a, purified (HisTrap, His-SUMO tag removal, Superdex200); not shown: His, N-terminal, cleaved; SUMO, N-terminal, cleaved
T1 sequence (looked up): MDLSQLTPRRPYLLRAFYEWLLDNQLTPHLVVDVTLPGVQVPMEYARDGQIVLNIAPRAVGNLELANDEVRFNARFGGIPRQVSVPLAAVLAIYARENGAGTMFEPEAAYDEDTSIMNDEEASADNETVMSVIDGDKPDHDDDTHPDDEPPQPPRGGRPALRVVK
protocol details: MST; 50 nM eGFP-degron (eGFP fluorescence), SspB titrated 3.72 nM to 122 μM; 25 mM Hepes pH 7.6, 200 mM KCl, 5 mM MgCl2, 10% glycerol, 0.05% Tween 20; 15 min at RT; measured at 20 °C, Monolith NT.115
run conditions: both partners purified
No end group written: not given here.
What pKd was measured for each of the following?
Answers are plain numbers, as −log10 of the molar value.

Lab note: each binder below needs its pKd filled in.
1. eGFP-AANDENYALAA (ssrA tag of Escherichia coli, the 11 amino acids added by trans-translation (tmRNA), appended to the C-terminus of eGFP; Degron fused to the C-terminus of His-TEV-eGFP; also called eGFP-ssrA; eGFP-SsrA; source: E. coli ΔclpP Keio strain (JW0427) (earlier Top10), pBAD, purified (HisTrap and Superdex200 in tandem); not shown: His-TEV, N-terminal, kept; eGFP, N-terminal, kept) [eGFP-AANDENYALAA]
2. eGFP-AANDENYSENYADAS (ssrA tag variant with the SENY linker and the C-terminal ALAA replaced by ADAS, appended to the C-terminus of eGFP; Degron fused to the C-terminus of His-TEV-eGFP; source: E. coli ΔclpP Keio strain (JW0427) (earlier Top10), pBAD, purified (HisTrap and Superdex200 in tandem); not shown: His-TEV, N-terminal, kept; eGFP, N-terminal, kept) [eGFP-AANDENYSENYADAS]
3. eGFP-AANDENYSENY (AANDENY motif of the ssrA tag followed by the SENY linker, appended to the C-terminus of eGFP; Degron fused to the C-terminus of His-TEV-eGFP; source: E. coli ΔclpP Keio strain (JW0427) (earlier Top10), pBAD, purified (HisTrap and Superdex200 in tandem); not shown: His-TEV, N-terminal, kept; eGFP, N-terminal, kept) [eGFP-AANDENYSENY]
4. eGFP-AANDENYADAS (ssrA tag variant with the C-terminal ALAA replaced by ADAS, appended to the C-terminus of eGFP; Degron fused to the C-terminus of His-TEV-eGFP; source: E. coli ΔclpP Keio strain (JW0427) (earlier Top10), pBAD, purified (HisTrap and Superdex200 in tandem); not shown: His-TEV, N-terminal, kept; eGFP, N-terminal, kept) [eGFP-AANDENYADAS]

OUT:
1: 7.10; 2: 6.52; 3: 7.00; 4: 6.48
